# experimentalProtocol: Acute toxicity administered per orally
# Format: organism-based
# conditionInfo: mouse, in vivo, po
readoutType: LD50 (mg/kg)
Report as a plain number; the unit mg/kg is understood.

// solved cases for LD50 follow
> print(dat)
                                   compound  readouttype  resultnumber
1  CCCCCc1cc(O)c2c(c1)OC(C)(C)C/C2=N\CC(C)O (stereo unspecified)         LD50           800
2  CCCCCc1cc(O)c2c(c1)OC(C)(C)C/C2=N\C[C@@H](C)O         LD50           800

Shift focus to the following entry.
Ask | Identify the reported LD50 for the following entry. CCCCc1cc(O)c2c(c1)OC(C)(C)C[C@H]2NCC(C)O (stereo partly specified)
Reply | 800

* * *

# Tested on: Rattus norvegicus
# experimentalProtocol: Ability to potentiate pentobarbital-induced sleep administered per orally; i = inactive
# Format: functional, organism-based
Calls of active or inactive are those of the source. The calls are words filed in the database; no cut-off is given here.
readoutType: ED50

> print(dat)
                                   molecule    result
1  CCCCCc1cc(O)c2c(c1)OC(C)(C)C/C2=N\CC(C)O (centres undefined)  inactive
2  CCCCCc1cc(O)c2c(c1)OC(C)(C)C/C2=N\C[C@@H](C)O  inactive
3     CCCCCc1cc(O)c2c(c1)OC(C)(C)C/C2=N\CCO  inactive
4     CCCCCc1cc(O)c2c(c1)SC(C)(C)C/C2=N\CCO  inactive

* * *

# experimentalProtocol: Acute toxicity administered per orally
# Format: organism-based
# conditionInfo: mouse, in vivo, po
readoutType: LD50

// solved cases for LD50 follow
> print(dat)
                                   compound       result
1     CCCCCc1cc(O)c2c(c1)OC(C)(C)C/C2=N\CCO  > 800 mg/kg
2  CCCCCc1cc(O)c2c(c1)SC(C)(C)C/C2=N\CC(C)O (stereo not drawn)  > 800 mg/kg

Ask | Identify the reported LD50 for the following entry. CCCCCc1cc(O)c2c(c1)SC(C)(C)C[C@H]2NCC(C)O (stereo partly drawn)
Reply | > 1600 mg/kg
